- target_or_system: T1, CCR1 (Homo sapiens, UniProt P32246)
- T1 sequence (P32246 1-355): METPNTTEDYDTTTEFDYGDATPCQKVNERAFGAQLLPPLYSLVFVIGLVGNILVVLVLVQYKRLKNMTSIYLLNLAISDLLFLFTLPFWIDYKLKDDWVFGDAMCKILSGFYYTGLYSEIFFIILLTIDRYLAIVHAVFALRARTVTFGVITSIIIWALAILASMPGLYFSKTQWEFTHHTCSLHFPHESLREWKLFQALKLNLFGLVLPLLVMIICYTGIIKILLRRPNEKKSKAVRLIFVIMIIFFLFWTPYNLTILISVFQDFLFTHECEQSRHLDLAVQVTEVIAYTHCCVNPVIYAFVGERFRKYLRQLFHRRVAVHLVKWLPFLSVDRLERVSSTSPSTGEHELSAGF
- experimental_protocol: Calcium mobilization in murine L1.2 cells expressing human CCR1
- Assay type: cell-based
- Set-up: expressed in transfected cells; host or cells: murine L1.2 cells (G-418 selected transfectant)
- assay_setup: L1.2-CCR1 cells; 10 nM input chemokine; after digestion with proteases and fluids
- Method: Calcium Mobilization Assay. Cells were loaded for 1 hour with 2 μM indo-1/AM dye (Molecular Probes, Eugene, Oreg.) in culture medium, then washed with 10 ml PBS and resuspended at 10^6/ml in HBSS containing 1% FBS. Cytosolic calcium responses were determined using a Photon Technology International (Lawrenceville, N.J.) fluorimeter, with excitation at 350 nm and dual emission at 400 and 490 nm. […] Receptor signaling assay. […] Data were analyzed and plotted in arbitrary units of fluorescence using Prism. […]
parameter: calcium mobilization

Requested field: calcium mobilization. Item: CCL23/CKβ8: recombinant full-length human chemokine CCL23 (22-120), 99-residue protein (protein, listed as Homo sapiens) RVTKDAETEFMMSKLPLENPVLLDRFHATSADCCISYTPRSIPCSLLESYFETNSECSKPGVIFLTKKGRRFCANPSDKQVQVCMRMLKLDTRIKTRKN
uniformly active

Requested field: calcium mobilization. Item: CCL6/C10: recombinant murine C6* chemokine (protein, listed as Homo sapiens) GLIQEMEKEDRRYNPPIIHQGFQDTSSDCCFSYATQIPCKRFIYYFPTSGGCIKPGIIFISRRGTQVCADPSDRRVQRCLSTLKQGPRSGNKVIA
uniformly active

Requested field: calcium mobilization. Item: CCL9/MIP-1γ: recombinant murine C6* chemokine (protein, listed as Homo sapiens) QITHATETKEVQSSLKAQQGLEIEMFHMGFQDSSDCCLSYNSRIQCSRFIGYFPTSGGCTRPGIIFISKRGFQVCANPSDRRVQRCIERLEQNSQPRTYKQ
uniformly active
